This collection of values is drawn from the Human Domainome abundance scans (Beltran et al. 2025).

B1: Neutrophil cytosol factor 2, residues 456 to 514; numbered along this chain, P19878 (parent)
chain: LKKGSQVEALFSYEATQPEDLEFQEGDIILVLSKVNEEWLEGECKGKVGIFPKVFVEDC

Variants of: B1
PROCEDURE TEXT: abundance fitness (aPCA) (normalised: wild type 0, dead -1); higher = more abundant; growth selection in yeast, the domain comes from the species named
RUN PARAMETERS: Homo sapiens
Parameter threshold = -0.6. Response is T when abundance fitness meets or exceeds it, else F.

Some solved cases for reference:
SEQUENCE DATA	LABEL CLASS
LKKGSQVEALFSYEATQPEDLEFQEGDIILVLSKVNFEWLEGECKGKVGIFPKVFVEDC [E37F]	F
LKKGSQVEALFSYEATQPEDLEFQEGDIILVLSKVNEEWLEGEFKGKVGIFPKVFVEDC [C44F]	F
LKKGSQVEALFSYEATQPEDLEFQEGDIILVLSKENEEWLEGECKGKVGIFPKVFVEDC [V35E]	F
LKKGSQVEALFSYEATQPEDLEFQEGDIILVLSKVNEEILEGECKGKVGIFPKVFVEDC [W39I]	T

Could you verify whether the entry LKKGSQVEALFSYEATQPEDLEFQEGDIILVLSKVNEEWLEGEVKGKVGIFPKVFVEDC [C44V] shows abundance fitness of no less than -0.6?
T

Please indicate if the recorded abundance fitness for LKKGSQVEALFSYEATQPEDLEFQEGDIILVLSKVNEEWLEGECKGLVGIFPKVFVEDC [K47L] meets or exceeds -0.6.
T

Is reported abundance fitness greater than or equal to -0.6 here: LKKGSQVEALFSYEATQPEDLEFQEGDIILVLSKVNGEWLEGECKGKVGIFPKVFVEDC [E37G]
T

Quick check, abundance fitness >= -0.6? LKCGSQVEALFSYEATQPEDLEFQEGDIILVLSKVNEEWLEGECKGKVGIFPKVFVEDC [K3C]
T

# check: abundance fitness of LKKGSQVEALFSYEATQPEDLEFQEGDIILVLPKVNEEWLEGECKGKVGIFPKVFVEDC [S33P] is greater than or equal to -0.6
T
